# System: C6 rat glioma cell line
# method.description: MTT cell viability / cytotoxicity on C6
# Assay type: cell-based
# settings: mean ± S.D. of three determinations
observation.type: IC50 (µM)
Use µM as the unit, but write only the number.

Jot down IC50 (C6 rat glioma cell line) of CC(=O)Nc1ccccc1OCc1nnc(SCC(=O)Nc2nc3ccc(Cl)cc3s2)o1 [Compound 4b] .
19.9

Using C6 rat glioma cell line as the test system, report measured IC50 of CCOc1ccc2nc(NC(=O)CSc3nnc(COc4ccccc4NC(C)=O)o3)sc2c1 [Compound 4g] .
8.16

Give C6 rat glioma cell line IC50 for the following molecule: COc1ccc2nc(NC(=O)CSc3nnc(COc4ccccc4NC(C)=O)o3)sc2c1 [Compound 4c]
22.1

Output reported IC50 of the molecule CC(=O)Nc1ccccc1OCc1nnc(SCC(=O)Nc2nc3ccccc3s2)o1 [Compound 4a] on C6 rat glioma cell line.
18.5

Fill in: IC50 on C6 rat glioma cell line, entry CC(=O)Nc1ccccc1OCc1nnc(SCC(=O)Nc2nc3ccc(C)cc3s2)o1 [Compound 4e]
458

Return reported IC50 for target or system C6 rat glioma cell line, item CC(=O)Nc1ccccc1OCc1nnc(SCC(=O)Nc2nc3ccc(F)cc3s2)o1 [Compound 4f] .
13

Specify IC50 for CC(=O)Nc1ccccc1OCc1nnc(SCC(=O)Nc2nc3ccc([N+](=O)[O-])cc3s2)o1 [Compound 4d] , system C6 rat glioma cell line.
28.3
